Target: T1, recombinant human TREM2-DAP12 fusion protein expressed on cells (human)
T1 construct: also called HEKhT2; 293 cells expressing human TREM2; not shown: None of these limits is stated
T1 chain: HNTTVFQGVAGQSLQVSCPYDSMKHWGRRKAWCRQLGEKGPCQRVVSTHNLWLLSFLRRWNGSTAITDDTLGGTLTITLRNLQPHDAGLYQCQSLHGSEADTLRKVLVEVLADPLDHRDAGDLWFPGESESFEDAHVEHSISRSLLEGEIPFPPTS
Assay: KD cell binding
measurement_type: pKd
Please treat pKd as minus the base-10 logarithm of the molar concentration.

Example entries and their recorded answers appear below.
Ask | Given the entry 9F5 (antibody, IgG1, V domains shown, mIgG1; VH FR 169/184/202/216, HVR 60/78/97; also called mAb T2-9F5.1; 9F5 MAb) VH: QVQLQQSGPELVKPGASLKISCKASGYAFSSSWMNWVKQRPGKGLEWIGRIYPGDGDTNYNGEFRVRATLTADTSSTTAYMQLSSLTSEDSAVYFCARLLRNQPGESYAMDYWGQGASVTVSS VL: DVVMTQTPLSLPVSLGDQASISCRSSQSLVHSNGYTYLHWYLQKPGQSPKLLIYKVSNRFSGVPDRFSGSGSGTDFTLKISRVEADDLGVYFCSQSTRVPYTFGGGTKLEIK , report its measured pKd.
Reply | 9.02

Ask | Given the entry 6H2 (antibody, IgG2a, V domains shown, mIgG2a) VH: QVQLQESGPGLVQPSQSLSIICTVSAFSLTNYAVHWIRQSPGKGLEWLGVIWSGGSTAFNAAFISRLNISKDNSKSQVFFKMNSLQSDDTAIYYCATHYYRSTYAFSYWGQGTLVTVSA VL: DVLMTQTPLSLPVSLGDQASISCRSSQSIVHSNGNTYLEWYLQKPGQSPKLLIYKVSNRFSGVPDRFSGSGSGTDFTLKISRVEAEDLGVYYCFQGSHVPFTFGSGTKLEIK , report its measured pKd.
Reply | 8.27

Ask | Given the entry 10A9 (antibody, IgG1, V domains shown, mIgG1) VH: QVQLQQSGAEVVKPGASVKMSCKTSGYPFSNFWITWVKQRPGQGLVWIGDIYPGSDNRNFNERFKTKATLTVDTSSSTAYMHLSSLTSEDSAVYFCAREAYYTNPGFAYWGQGTLVTVSA VL: DVVMTQTPLSLPVSLGDQASISCRSSQTIIHSNGNTYLEWYLRKPGQSPKLLIYKVSNRFCGVPDRFSGSGSGTDFTLKISRVEAEDLGVYYCFQGSHVPYTFGGGTELEIK , report its measured pKd.
Reply | 8.37

Moving on to another binder below.
Ask | Given the entry 8A1 (antibody, IgG2a, V domains shown, mIgG2a) VH: EVQLQQSGAELVKPGASVKISCKASGYAFSNYWMSWVKQRPGKGLEWIGQIYPGDGDTKYNGKFEGKATLTADKSSSTAYMQLSSLTSEDSAVYFCSREKGADYYGSTYSAWFSYWGQGTLVTVSA VL: DIQMTQSPASLSVSVGETVTITCRTSENVYSNLAWYQQKQGKSPQLLVYAATNLADGVPSRFSASGSATQFSLKINSLQSADFGSYYCHHFWGTPYTFGGGTKLEMN , report its measured pKd.
Reply | 8.33
